// provenance: the supplement of paper PMC10338343

System: MIWI (PIWIL1) piRISC loaded with Kctd7 piRNA (30 nt);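 also: 1 nM active piRISC with 0.1 nM target library at 33 °C single turnover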
measurement notes: pre-steady-state target cleavage rate (min^-1); higher = faster piRNA-guided slicing of the target
condition set: guide: Kctd7 piRNA 5'p-UGUUAAUCUCUCAGAGAAGGUGACAGUGAU; auxiliary factor: 500 nM mouse GTSF1
Whole data set: some 6,600 sequences, median “pre-steady-state target cleavage rate” near 0.07, cut for the highest 2% near 0.72. The full list was thinned out, with the highest values kept by preference.
Could you please classify the records by pre-steady-state target cleavage rate using these ranges: low: < 0.3; medium: ≥ 0.3 and < 0.7; high: ≥ 0.7

{"residue codes": "UUCACUGUCACCUUGUCUGAGUGAUUAACA", "answer label": "low"}
{"residue codes": "UAGUCAGUCACCUUCUCUGAGAGAUUAACA", "answer label": "high"}
{"residue codes": "AUCACUGUCAGGUUCUCUGAGAGAUUAACA", "answer label": "medium"}
{"residue codes": "AUCACUGUCACCAUCUCUGAGAGAUUAACA", "answer label": "high"}
{"residue codes": "UAGUGACUGACCUUCUCUGAGAGAUUAUGA", "answer label": "low"}
{"residue codes": "UAGUGACUCUGCUUCUCUGAGAGAUUAACA", "answer label": "low"}
{"residue codes": "UUCACAGUCACCUUCUGUGAGAGAUUAACA", "answer label": "medium"}
{"residue codes": "UACAGUGUCAGCUUCUCUGAGAGAUUAACA", "answer label": "medium"}
{"residue codes": "UACACUGUCACCAUCUCUGAGAGAUUAACA", "answer label": "medium"}
{"residue codes": "UAGUGACAGUCCUUCUCUGAGAGAUAAUCA", "answer label": "low"}
{"residue codes": "UAGUGUCUCAGCUUCUCUGAGAGAUUAACA", "answer label": "medium"}
{"residue codes": "UAGUCUGGUCACCUUCUCUGAGAGAUUAACA", "answer label": "high"}
{"residue codes": "UAGUCUAGUCACCUUCUCUGAGAGAUUAACA", "answer label": "medium"}
{"residue codes": "UAGUGUGUCACCUUCUCUGAGAGUUUAUCA", "answer label": "low"}
{"residue codes": "UAGUGACUCACCAUCUCUGAGAGUUUAACA", "answer label": "low"}
{"residue codes": "UAGACUGUCAUCUUCUCUGAGAGAUUAACA", "answer label": "high"}
{"residue codes": "UUCAGUGUCAGCUUCUCUGAGAGAUUAACA", "answer label": "medium"}
{"residue codes": "AUCACUGUCACCAUCUCUGUGAGAUUAACA", "answer label": "low"}
{"residue codes": "UAGAGUGUCAGCUUCUCUGAGAGAUUAACA", "answer label": "high"}
{"residue codes": "AUCACUGACACCAUCUCUGAGAGAUUAACA", "answer label": "medium"}
{"residue codes": "UAGACUGUCAGCUUCUCUGAGAGAUUAAGA", "answer label": "low"}
{"residue codes": "UUCACUGUCACCAUCUCUGAGAGAUUAACA", "answer label": "high"}
{"residue codes": "AUCACUCACACCUUCUCUGAGAGAUUAACA", "answer label": "medium"}
{"residue codes": "AACACUGUCACCAUCUCUGAGAGAUUAACA", "answer label": "high"}
{"residue codes": "AUCACUGUCAUCUUCUCUGAGAGAUUAACA", "answer label": "high"}
{"residue codes": "UUCACUGUCACCAUCUCUGAGAGAUUAAGA", "answer label": "low"}
{"residue codes": "UUCAGUGUCACCUUCUCUGAGAGAUAAACA", "answer label": "low"}
{"residue codes": "UAGUGACUCACCUUCUUUGAGAGAUUAACA", "answer label": "low"}

====

System: MIWI (PIWIL1) piRISC loaded with Kctd7 piRNA (30 nt);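 also: 1 nM active piRISC with 0.1 nM target library at 33 °C single turnover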
measurement notes: pre-steady-state target cleavage rate (min^-1); higher = faster piRNA-guided slicing of the target
condition set: guide: Kctd7 piRNA 5'p-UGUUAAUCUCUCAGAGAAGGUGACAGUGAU; auxiliary factor: 500 nM mouse GTSF1
In all, about 6,600 sequences were measured (“pre-steady-state target cleavage rate”: median about 0.07, highest 2% from about 0.72 on). The entries come from a sample that favours the highest values as a whole.
Give Criterion met when the value for pre-steady-state target cleavage rate is at least 0.5. Give Criterion not met when it is less.

{"residue codes": "UUCACUGUCACAUUCUCUGAGAGAUUAACA", "answer label": "Criterion met"}
{"residue codes": "UAGUCUGUCAACUUCUCUGAGAGAUUAACA", "answer label": "Criterion met"}
{"residue codes": "UUGACUGUCACGUUCUCUGAGAGAUUAACA", "answer label": "Criterion met"}
{"residue codes": "AUCACUGUCAACUUCUCUGAGAGAUUAACA", "answer label": "Criterion met"}
{"residue codes": "AUCACUGUCACUCUUCUCUGAGAGAUUAACA", "answer label": "Criterion met"}
{"residue codes": "UAGACUGUCACAUUCUCUGAGAGAUUAACA", "answer label": "Criterion met"}
{"residue codes": "UACACUGUCACCAUUCUCUGAGAGAUUAACA", "answer label": "Criterion met"}
{"residue codes": "UAGUCUGUCACCAUUCUCUGAGAGAUUAACA", "answer label": "Criterion met"}
{"residue codes": "UUCACUGUCACCUUCUCUGACGAGAUUAACA", "answer label": "Criterion not met"}
{"residue codes": "UUCACUGUCACCUUCUCUGAAGAGAUUAACA", "answer label": "Criterion not met"}
{"residue codes": "UAGUCUGUCACAUUCUCUGAGAGAUUAACA", "answer label": "Criterion met"}
{"residue codes": "UUCACUGUCAUCUUCUCUGAGAGAUUAACA", "answer label": "Criterion met"}
{"residue codes": "UAGACUGUCACUCUUCUCUGAGAGAUUAACA", "answer label": "Criterion not met"}
{"residue codes": "UUCACUGUCACCUCUCUCUGAGAGAUUAACA", "answer label": "Criterion not met"}
{"residue codes": "UAGACUGUCAACUUCUCUGAGAGAUUAACA", "answer label": "Criterion met"}
{"residue codes": "UACACUGUCACACUUCUCUGAGAGAUUAACA", "answer label": "Criterion met"}
{"residue codes": "UAGACUGUCAUCCUUCUCUGAGAGAUUAACA", "answer label": "Criterion not met"}
{"residue codes": "UACACAGUCACGUUCUCUGAGAGAUUAACA", "answer label": "Criterion met"}
{"residue codes": "AUCACUGUCACGUUCUCUGAGAGAUUAACA", "answer label": "Criterion met"}
{"residue codes": "UUCACUGUCACCUAGUCUGAGAGAUUUUGA", "answer label": "Criterion not met"}
{"residue codes": "UAGACUGUCACGCUUCUCUGAGAGAUUAACA", "answer label": "Criterion met"}
{"residue codes": "UUCACUGUCACGUUCUCUGAGAGAUUAACA", "answer label": "Criterion met"}
{"residue codes": "AUCACUGUCACCUUCUUCUGAGAGAUUAACA", "answer label": "Criterion not met"}
{"residue codes": "UACACUGUCACAUUCUCUGAGAGAUUAACA", "answer label": "Criterion met"}
{"residue codes": "UACACUGUCACGUUCUCUGAGAGAUUAACA", "answer label": "Criterion met"}
{"residue codes": "AUCACAGUCACGUUCUCUGAGAGAUUAACA", "answer label": "Criterion met"}
{"residue codes": "UUCACAGUCACGUUCUCUGAGAGAUUAACA", "answer label": "Criterion met"}

====

System: MIWI (PIWIL1) piRISC loaded with Kctd7 piRNA (30 nt);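 also: 1 nM active piRISC with 0.1 nM target library at 33 °C single turnover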
measurement notes: pre-steady-state target cleavage rate (min^-1); MIWI and MILI are mouse PIWI proteins and EfPiwi is from a freshwater sponge; tags in brackets are library labels; higher = faster piRNA-guided slicing of the target;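 also: 1 nM active piRISC with 0.1 nM target library at 33 °C single turnover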
condition set: guide: Kctd7 piRNA 5'p-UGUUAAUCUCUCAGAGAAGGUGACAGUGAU; auxiliary factor: 500 nM mouse GTSF1
Over roughly 6,600 sequences, “pre-steady-state target cleavage rate” has its median near 0.07; the highest 2% begin near 0.72. The sample as a whole holds a higher share of the highest values than the screen did.
Give T when the value for pre-steady-state target cleavage rate is at least 0.7. Give F when it is less.

{"residue codes": "AUCACUAGUCACCUUCUCUGAGAGAUUAACA", "answer label": "T"}
{"residue codes": "AACACAGUCACCUUCUCUGAGAGAUUAACA", "answer label": "T"}
{"residue codes": "UAGACUGUCGCCUUCUCUGAGAGAUUAACA", "answer label": "T"}
{"residue codes": "AUCACUGUCGCCUUCUCUGAGAGAUUAACA", "answer label": "T"}
{"residue codes": "UAGACUGUCGACCUUCUCUGAGAGAUUAACA", "answer label": "F"}
{"residue codes": "UACACUGAGACCUUCUCUGAGAGAUUAUGA", "answer label": "F"}
